The measured values listed here are drawn from the supplement of paper PMC11061612.

Tested on: SNU-C5 (Colorectal Carcinoma);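 also: after 72 h of two-drug dosing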
Experiment: Bliss excess, mean over the matrix (fraction); higher = more synergy
Would you kindly list Bliss excess for each of these molecules?

Observe how each entry below is paired with its result.
molecule	measured.on	Bliss excess
Cn1cnc2c(F)c(Nc3ccc(Br)cc3Cl)c(C(=O)NOCCO)cc21 [Selumetinib] + C[C@@H]1COCCN1C2=NC(=NC(=C2)C3(CC3)[S@](=N)(=O)C)C4=C5C=CNC5=NC=C4 [AZD6738] (first compound max 10 µM, 7x7, partner max 10 µM)	SNU-C5 (Colorectal Carcinoma)	0.0751
COc1cccc(OCCCN)c1-c1cc(Nc2cnc(C#N)cn2)n[nH]1 [Prexasertib] + CCc1c2c(nc3ccc(O)cc13)-c1cc3c(c(=O)n1C2)COC(=O)[C@]3(O)CC [SN-38] (first compound max 1 µM, 7x7, partner max 0.3 µM)	SNU-C5 (Colorectal Carcinoma)	-0.0375
COc1nnc2ccc(N3CCC(c4ccc(OCCN5CCN(C)C(=O)[C@H]5C)cc4)CC3)nn12 [AZD5153] + CCN(CCO)CCCOc1ccc2c(Nc3cc(CC(=O)Nc4cccc(F)c4)[nH]n3)ncnc2c1 [AZD2811] (first compound max 1 µM, 7x7, partner max 1 µM)	SNU-C5 (Colorectal Carcinoma)	-0.0541

Please give Bliss excess for each item listed below.
1. Cn1cnc2c(F)c(Nc3ccc(Br)cc3Cl)c(C(=O)NOCCO)cc21 [Selumetinib] + CC(C)n1c(=O)n(C)c2cnc3cc(F)c(-c4ccc(OCCCN5CCCCC5)nc4)cc3c21 [AZD1390] (first compound max 10 µM, 7x7, partner max 0.3 µM)
2. COc1cccc(OCCCN)c1-c1cc(Nc2cnc(C#N)cn2)n[nH]1 [Prexasertib] + C=CCn1c(=O)c2cnc(Nc3ccc(N4CCN(C)CC4)cc3)nc2n1-c1cccc(C(C)(C)O)n1 [AZD1775] (first compound max 1 µM, partner max 1 µM)

Result:
[-0.0283, 0.0153]

Please give Bliss excess for each item listed below.
1. CS(=O)(=O)CCNCc1ccc(-c2ccc3ncnc(Nc4ccc(OCc5cccc(F)c5)c(Cl)c4)c3c2)o1 [Lapatinib] + C[C@@H](Oc1cc(-c2cnn(C3CCNCC3)c2)cnc1N)c1c(Cl)ccc(F)c1Cl [Crizotinib] (first compound max 10 µM, 7x7, partner max 10 µM)
2. Cc1cc2ncnn2cc1Nc1ncc2c(n1)n(C1CCOCC1)c(=O)n2C [AZD7648] + CCN(CCO)CCCOc1ccc2c(Nc3cc(CC(=O)Nc4cccc(F)c4)[nH]n3)ncnc2c1 [AZD2811] (first compound max 10 µM, 7x7, partner max 1 µM)
3. CN(CCO)CC[C@H](CSc1ccccc1)Nc1ccc(S(=O)(=O)NC(=O)c2ccc(N3CCC([C@@H](O)c4ccccc4-c4ccc(Cl)cc4)CC3)cc2)cc1S(=O)(=O)C(F)(F)F [AZD4320] + Cc1cc2ncnn2cc1Nc1ncc2c(n1)n(C1CCOCC1)c(=O)n2C [AZD7648] (first compound max 1 µM, 7x7, partner max 10 µM)

Result:
1. -0.0301
2. 0.0093
3. -0.0257

Please give Bliss excess for each item listed below.
1. C[C@@H](c1ccc2nccn2c1)n1nnc2ncc(-c3cnn(C)c3)nc21 [Savolitinib] + CC1(C)CCC(CN2CCN(c3ccc(C(=O)NS(=O)(=O)c4ccc(NCC5CCOCC5)c([N+](=O)[O-])c4)c(Oc4cnc5[nH]ccc5c4)c3)CC2)=C(c2ccc(Cl)cc2)C1 [Venetoclax] (first compound max 1 µM, 7x7, partner max 1 µM)
2. CC1(C)CCC(CN2CCN(c3ccc(C(=O)NS(=O)(=O)c4ccc(NCC5CCOCC5)c([N+](=O)[O-])c4)c(Oc4cnc5[nH]ccc5c4)c3)CC2)=C(c2ccc(Cl)cc2)C1 [Venetoclax] + C[C@@H](Nc1cc(F)cc(F)c1)c1cc(C(=O)N(C)C)cc2c(=O)cc(N3CCOCC3)oc12 [AZD8186] (first compound max 1 µM, 7x7, partner max 3 µM)
3. C[C@@H](c1ccc2nccn2c1)n1nnc2ncc(-c3cnn(C)c3)nc21 [Savolitinib] + CN(CC[C@H](CSC1=CC=CC=C1)NC2=C(C=C(C=C2)S(=O)(=O)NC(=O)C3=CC=C(C=C3)N4CCC(CC4)[C@H](C5=CC=CC=C5C6=CC=C(C=C6)Cl)O)S(=O)(=O)C(F)(F)F)CCO [AZD4320] (first compound max 1 µM, 7x7, partner max 1 µM)
4. COc1nnc2ccc(N3CCC(c4ccc(OCCN5CCN(C)C(=O)[C@H]5C)cc4)CC3)nn12 [AZD5153] + CN(CC[C@H](CSC1=CC=CC=C1)NC2=C(C=C(C=C2)S(=O)(=O)NC(=O)C3=CC=C(C=C3)N4CCC(CC4)[C@H](C5=CC=CC=C5C6=CC=C(C=C6)Cl)O)S(=O)(=O)C(F)(F)F)CCO [AZD4320] (first compound max 1 µM, 7x7, partner max 1 µM)

Result:
[-0.0596, -0.0308, -0.0448, 0.0451]

Ask: Requested field: Bliss excess. Item: CC1(C)CCC(CN2CCN(c3ccc(C(=O)NS(=O)(=O)c4ccc(NCC5CCOCC5)c([N+](=O)[O-])c4)c(Oc4cnc5[nH]ccc5c4)c3)CC2)=C(c2ccc(Cl)cc2)C1 [Venetoclax] + C[C@@H]1COCCN1C2=NC(=NC(=C2)C3(CC3)[S@](=N)(=O)C)C4=C5C=CNC5=NC=C4 [AZD6738] (first compound max 1 µM, 7x7, partner max 10 µM)
Result: -0.0289
